- System: EBOV-GFP
- Measurement notes: microbe, parasite or virus in culture
- Format: cell-based, Ebola Zaire virus
- Protocol conditions: Zaire ebolavirus, Vero C1008, read-out: IC50 (read from graphs of % of control infection)
pIC50: −log10 of the molar value.
Give measured pIC50 for each item. Keep answers brief.

# Structure smiles, pIC50
records = [
    ("CC(=O)NC1=C(Sc2ccc(Cl)cc2)C(=O)c2ccccc2C1=O", "~4.82"),
    ("N=C(N)c1ccc2oc(/C=C/c3cc4ccc(C(=N)N)cc4o3)cc2c1", "~5.22"),
]

Then this molecule:
Per the record, N=C(N)c1ccc2oc(C=Cc3nc4cc(C(=N)N)ccc4[nH]3)cc2c1 has pIC50 of ~5.40

Hey, just so you know, these numbers are from patent US7999001B2.
